The values you see were collected from PubChem BioAssay AID845.

Measured cell count reduction values are reported for all entries that follow.
measurement-notes: cytotoxicity in IL-1B stimulated HUVEC, primary screen, cytotoxicity control for IL-1B NFkB translocation project, imaging, Hoechst nuclear count, IL-1B stimulus (AID 845);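 further: normalized per plate to untreated control cells as the no-loss baseline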
applied-conditions: HUVEC cell count loss, at 2 µM, stronger effect = higher value
In all, about 94,000 compounds went through this assay and about 390 (0.41%) were called active. This is one part of a sample in which actives are shown more often than they occur.
Report as a plain number; the unit % is understood.

Example results:
1. CNC(=O)c1c(NC(NC(=O)c2ccco2)C(=O)c2ccc(Cl)cc2)sc2c1CCCC2 (configuration not stated) :: 9.9
2. COc1cc(OC)nc(NC(=O)CCl)n1 :: -85.3
3. CCCC(=O)NC(Nc1ccccc1OC)C(Cl)(Cl)Cl (configuration not stated) :: -2.7
4. CC12CCC(C(=O)N3CCN(c4ncccn4)CC3)(c3nc4ccccc4nc31)C2(C)C (configuration not stated) :: 82.1

Input: // query cell count reduction value for entry `O=C(Cc1ccc(S(=O)(=O)N2CCOCC2)s1)NCCC(c1ccccc1)c1ccccc1`
Output: 2.4

Input: Now this one: `Cc1ccc(N(NC(=O)C(C)(C)O)C(=O)c2ccccc2)cc1C`
Output: 6.7

Input: Again, but for `O=C1/C(=C\Nc2ccccc2)CCN1c1ncccn1`
Output: -32.2

* * *

measurement-notes: cytotoxicity in IL-1B stimulated HUVEC, primary screen, cytotoxicity control for IL-1B NFkB translocation project, imaging, Hoechst nuclear count, IL-1B stimulus (AID 845);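 further: normalized per plate to untreated control cells as the no-loss baseline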
applied-conditions: HUVEC cell count loss, at 2 µM
Out of some 94,000 compounds screened, about 390 (0.41%) were called active.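 The calls were made as follows: active = cell count reduction more than 3 SD above the screen-wide mean (cut at about 70% in these data); inactive = the rest.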 The sample holds actives, similar compounds and a random draw of the others, so the mix is not that of the screen.
Give one outcome, nothing more. List: active, inactive

Record excerpt, results attached:
1) CC(=O)c1ccc2c(ccc3ccccc32)c1 :: inactive
2) COc1cc(C)nc(N2CCCC(C(=O)NCC(C)C)C2)n1 (stereo not drawn) :: inactive
3) COc1ccc2c(c1OC)C(=O)c1ccccc1C2=O :: inactive

Input: Please share the test call associated with CC(=O)C1=C(C)NC(=O)NC1c1cc(Br)ccc1OCC#N (stereo not drawn) .
Output: inactive

Input: Would you mind doing `Cc1cc(C)c(OCC(=O)N/N=C/c2ccco2)c(C)c1` as well?
Output: inactive

Input: Now this one: `Cc1nc(SCC(=O)c2ccccc2)c([N+](=O)[O-])[nH]1`
Output: inactive

Input: // next record `COc1cc(/C=N/NC(=O)Nc2ccccc2)ccc1OCCOc1ccccc1C`
Output: active

Input: // same read-out, input: `CCOc1ccc(NC(=O)Nc2cc(C)ccc2OC)cc1`
Output: inactive

Input: What do we get for c1ccc(C2CCC(N3CCC(N4CCCCC4)CC3)CC2)cc1 (stereo not drawn) ?
Output: inactive

Input: Consider next the molecule `COc1ccc(-n2c(SCC(=O)NCc3ccco3)nnc2-c2c[nH]c3ccccc23)cc1` in the same way.
Output: inactive

Input: Now consider `ONC(=Nc1ccc(Cl)cc1)c1ccccc1Cl` .
Output: inactive

Input: Queued: `CCn1nnnc1SCC(=O)c1ccc(C)cc1C`
Output: inactive

Input: Next molecule: `COC(=O)CNC(=O)c1ccccc1[N+](=O)[O-]`
Output: inactive

Input: Entry to check: CCOC(=O)c1ccc(N2C(=O)CC(N3CCC(C(=O)OCC)CC3)C2=O)cc1 (stereo not drawn)
Output: inactive

Input: Follow-up item: `CC(=O)Nc1ccc(C(=O)CSc2nnc(Cc3ccccc3)o2)cc1`
Output: inactive

Input: Same question, Cc1cc(=O)n2nc(N3CCCC(C(=O)N4CCN(C)CC4)C3)sc2n1 (stereo not drawn) this time
Output: active

Input: # iterate: OC(CN1C2=NCCCN2c2ccccc21)c1ccc(Br)cc1 (stereo not drawn)
Output: inactive

Input: Okay, and `O=C(CN1CCCCCC1)Nc1ccc(Br)cc1Br` ?
Output: inactive

Input: Can you handle `Cc1ccc(C)c(NC2=NCC(=O)N2c2ccc3c(c2)OCCO3)c1` next?
Output: inactive

Input: Please answer likewise for Cc1ccc(S(=O)(=O)N(c2cccc(C)c2)C2CCS(=O)(=O)C2)cc1 (stereo not drawn)
Output: inactive

Input: Param item: CC(NC(=O)C1CCC(CNc2c(N3CCOCC3)c(=O)c2=O)CC1)c1ccccc1 (stereo not drawn)
Output: inactive
